Assay protocol: Plasma pharmacokinetics in patients
Format: in vivo, human
Test conditions: human, plasma, oral, 100 mg, Tmax, median, Day 15, 100 mg QD, 3 patients
Readout label: Tmax
Please give the number followed by its unit.

Retrieve Tmax measured for CS(=O)(=O)N1CCN(Cc2cc3nc(-c4cccc5[nH]ncc45)nc(N4CCOCC4)c3s2)CC1 [pictilisib] and print it. 2 h

----------
Assay protocol: Plasma pharmacokinetics in patients
Format: in vivo, human
Test conditions: human, plasma, oral, 45 mg, Cmax, geometric mean, Day 15, 45 mg QD, 4 patients
Readout label: Cmax (nM)
Answers are plain numbers, in nM.

Retrieve Cmax measured for "CS(=O)(=O)N1CCN(Cc2cc3nc(-c4cccc5[nH]ncc45)nc(N4CCOCC4)c3s2)CC1" and print it. 436

----------
Assay protocol: Plasma pharmacokinetics in patients
Format: in vivo, human
Test conditions: human, plasma, oral, 130 mg, AUC 0-24, geometric mean, Day 1, 130 mg QD, 3 patients
Readout label: AUC(0-t) (µM·h)
Give bare numbers, in µM·h.

Retrieve AUC(0-t) measured for CS(=O)(=O)N1CCN(Cc2cc3nc(-c4cccc5[nH]ncc45)nc(N4CCOCC4)c3s2)CC1 [pictilisib] and print it. 2.99

----------
Assay protocol: Plasma pharmacokinetics in patients
Format: in vivo, human
Test conditions: human, plasma, oral, 100 mg, Cmax, geometric mean, Day 15, 100 mg QD, 3 patients
Readout label: Cmax (nM)
One number for each entry, in nM.

Retrieve Cmax measured for "CS(=O)(=O)N1CCN(Cc2cc3nc(-c4cccc5[nH]ncc45)nc(N4CCOCC4)c3s2)CC1" and print it. 751

----------
Assay protocol: Plasma pharmacokinetics in patients
Assay type: in vivo, human
Test conditions: human, plasma, oral, 15 mg, Tmax, median, Day 1, 15 mg QD, 4 patients
Readout label: Tmax (h)
One number for each entry, in h.

Retrieve Tmax measured for "CS(=O)(=O)N1CCN(Cc2cc3nc(-c4cccc5[nH]ncc45)nc(N4CCOCC4)c3s2)CC1" and print it. 2

----------
Assay protocol: Plasma pharmacokinetics in patients
Assay type: in vivo, human
Test conditions: human, plasma, oral, 15 mg, Cmax, geometric mean, Day 15, 15 mg QD, 4 patients
Readout label: Cmax (nM)
Numbers only, in nM.

Retrieve Cmax measured for "CS(=O)(=O)N1CCN(Cc2cc3nc(-c4cccc5[nH]ncc45)nc(N4CCOCC4)c3s2)CC1" and print it. 116

----------
Assay protocol: Plasma pharmacokinetics in patients
Format: in vivo, human
Test conditions: human, plasma, oral, 130 mg, AUC 0-24, geometric mean, Day 15, 130 mg QD, 3 patients
Readout label: AUC(0-t) (µM·h)
Numbers only, in µM·h.

Retrieve AUC(0-t) measured for "CS(=O)(=O)N1CCN(Cc2cc3nc(-c4cccc5[nH]ncc45)nc(N4CCOCC4)c3s2)CC1" and print it. 5.03

----------
Assay protocol: Plasma pharmacokinetics in patients
Assay type: in vivo, human
Test conditions: human, plasma, oral, 180 mg, Cmax, geometric mean, Day 15, 180 mg QD, 3 patients
Readout label: Cmax (nM)
One number for each entry, in nM.

Retrieve Cmax measured for "CS(=O)(=O)N1CCN(Cc2cc3nc(-c4cccc5[nH]ncc45)nc(N4CCOCC4)c3s2)CC1" and print it. 783

----------
Assay protocol: Plasma pharmacokinetics in patients
Assay type: in vivo, human
Test conditions: human, plasma, oral, 15 mg
Readout label: half-life

Retrieve half-life measured for "CS(=O)(=O)N1CCN(Cc2cc3nc(-c4cccc5[nH]ncc45)nc(N4CCOCC4)c3s2)CC1" and print it. 19.2 h
